experimental-details: Stability in rat liver microsomes assessed as half-life at 1 uM measured upto 60 mins in the presence of NADPH by LC-MS/MS analysis
Assay type: ADME, Microsome
Friendly reminder: half-life at 1 µM below 1 h is MET, at or above is NOT MET.

# input Dear reviewer, please state whether O=C(O)c1cc(F)c2nc(CN3CCN(c4cccc(OCc5ccc(Cl)c6c5OCC6)n4)C=N3)n(C[C@@H]3CCO3)c2c1 has half-life at 1 µM strictly beneath 1 h.
# output MET

# input Dear reviewer, please state whether COc1cc(C(F)(F)F)ccc1COc1cccc(N2C=NN(Cc3nc4c(F)cc(C(=O)O)cc4n3C[C@@H]3CCO3)CC2)n1 has half-life at 1 µM strictly beneath 1 h.
# output NOT MET

# input Dear reviewer, please state whether COc1cc(Cl)ccc1COc1cccc(N2C=NN(Cc3nc4c(F)cc(C(=O)O)cc4n3C[C@@H]3CCO3)CC2)n1 has half-life at 1 µM strictly beneath 1 h.
# output MET

# input Dear reviewer, please state whether COc1cc(C#N)ccc1COc1cccc(N2C=NN(Cc3nc4c(F)cc(C(=O)O)cc4n3C[C@@H]3CCO3)CC2)n1 has half-life at 1 µM strictly beneath 1 h.
# output NOT MET

# input Dear reviewer, please state whether N#Cc1ccc(COc2cccc(C3CCN(Cc4nc5ccc(C(=O)O)cc5n4C[C@@H]4CCO4)CC3)n2)c(F)c1 has half-life at 1 µM strictly beneath 1 h.
# output NOT MET

# input Dear reviewer, please state whether N#Cc1ccc(COc2cccc(N3C=NN(Cc4nc5c(F)cc(C(=O)O)cc5n4C[C@@H]4CCO4)CC3)n2)c2occc12 has half-life at 1 µM strictly beneath 1 h.
# output NOT MET
